Numbers sourced from PubChem BioAssay.

Target: NADPH oxidase 5 (Homo sapiens) (UniProt Q96PH1)
Sequence (Q96PH1 whole entry, looked up): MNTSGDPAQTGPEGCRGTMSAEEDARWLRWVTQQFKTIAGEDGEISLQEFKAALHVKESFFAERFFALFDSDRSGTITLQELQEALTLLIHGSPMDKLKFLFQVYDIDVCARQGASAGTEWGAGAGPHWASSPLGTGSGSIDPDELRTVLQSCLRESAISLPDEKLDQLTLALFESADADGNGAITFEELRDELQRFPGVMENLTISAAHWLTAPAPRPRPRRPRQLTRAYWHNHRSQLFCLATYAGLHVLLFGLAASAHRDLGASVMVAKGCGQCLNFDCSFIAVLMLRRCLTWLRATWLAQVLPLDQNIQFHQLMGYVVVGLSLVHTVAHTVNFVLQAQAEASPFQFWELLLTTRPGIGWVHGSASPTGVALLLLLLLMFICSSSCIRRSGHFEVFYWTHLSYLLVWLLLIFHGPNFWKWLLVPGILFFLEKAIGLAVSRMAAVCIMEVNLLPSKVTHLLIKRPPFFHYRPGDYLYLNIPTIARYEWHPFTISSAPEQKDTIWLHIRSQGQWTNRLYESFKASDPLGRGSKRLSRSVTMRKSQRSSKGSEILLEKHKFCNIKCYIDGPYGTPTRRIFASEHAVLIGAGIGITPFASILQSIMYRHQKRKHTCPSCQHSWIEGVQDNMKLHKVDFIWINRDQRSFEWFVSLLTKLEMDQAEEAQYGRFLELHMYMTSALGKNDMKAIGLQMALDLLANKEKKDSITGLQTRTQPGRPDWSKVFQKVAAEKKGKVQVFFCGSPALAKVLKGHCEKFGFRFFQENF
Assay: compounds shifting NOX5 Amplex Red fluorescence – cell-based, HEK293-NOX5, NOX inhibitor project, primary screen (AID 1161)
Conditions: HEK293-NOX5, ionomycin, 45 min, higher = more signal
Listed here are molecules together with their documented z-score.

molecule=NC(=O)NCC#Cc1ccc2c(c1)[C@]1(C(=O)N2)[C@H](c2ccccc2OCCO)N2[C@H](c3ccccc3)[C@H](c3ccccc3)OC(=O)[C@H]2[C@@H]1C(=O)NC[C@H](O)c1ccccc1 reported_value=0.062
molecule=CC(C)[Si]1(C(C)C)OCc2cc(-c3ccc(-c4ccc(Cl)c(Cl)c4)o3)nc(-c3ccccc3)c21 reported_value=0.701
molecule=O=C(c1ccccc1)N1C(=O)[C@]2(Cc3ccccc31)N=C(c1ccc(OCCCO)cc1)O[C@@H]2c1ccccc1 reported_value=-1.77
molecule="COc1cc2c(cc1O)C(C1CC1)N(C)CC2 (stereo not drawn)" reported_value=-2.96
molecule="O=C(Cc1ccccc1)[C@H]1C2C=CCCC(c3ccccc3)=C2CN1Cc1ccccc1 (stereo partly drawn)" reported_value=1.13

Notebook: CCOC(=O)[C@@H]1CCCCN1C(=O)C(=O)OC , z-score read as 0.153

# molecule Cc1ccc(N2C(=O)c3ccccc3[C@@H](C(=O)NCCCN(C)C)[C@@H]2c2ccc(CO)cc2)nc1 ; its z-score = 0.513

Summary for this molecule, CC(C)(C)OC(=O)CC[C@@]1(C(=O)NCC(O)CO)N=C(c2ccc(OCCCO)cc2)O[C@@H]1c1ccccc1CN=[N+]=[N-] (stereo partly drawn) : z-score is 0.416

====

Assay: binders of probe aHhip on microarray, primary screen, stem cell growth factor project, biochemical, small-molecule microarray, fluorescence 635/667 (AID 1087);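 further: score merges spot fluorescence at 667nm with spot signal to noise ratio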
Settings: higher = more signal
Measured composite z-score accompanies every entry in the list below.
Give your answer as a number; write no unit.

Guide cases for composite z-score, answers given:
compound=COc1ccc(C(=O)Nc2ccc(CN3C(=O)[C@]4(O[C@H](CC(=O)N5Cc6ccccc6C[C@H]5CO)[C@@H]([Si](C)(C)c5ccc(OC)cc5)[C@@H]4C)c4ccccc43)cc2)cc1 readout="composite z-score" reported_value=-0.0618
compound=[N-]=[N+]=NCc1ccccc1[C@@H]1OC(c2ccc(OCCCO)cc2)=N[C@]1(CCS(=O)(=O)c1ccccc1)C(=O)O readout="composite z-score" reported_value=-0.0994
compound=CC(C)N1C(=O)C[C@@](C(=O)NC2CC2)(c2ccc([N+](=O)[O-])cc2)[C@H]1c1ccc(CO)cc1 readout="composite z-score" reported_value=-0.0994
compound=COC(=O)[C@@]1(Cc2ccc(F)cc2)[C@H]2c3cc(C(=O)N(C)C)n(Cc4ccc(OC(F)(F)F)cc4)c3C[C@H]2CN1C(=O)c1ccccc1 readout="composite z-score" reported_value=-0.305
compound="CS(=O)(=O)CCOC(=O)C1=CC(CCCO)=CC(c2ccc(CN3CCCC3)cc2)N(Cc2sc3ccccc3c2Cl)C=C1C(=O)OCCS(C)(=O)=O (stereo not drawn)" readout="composite z-score" reported_value=0.0053
compound="CCCCC(O)C1C=CC2C(=O)N(C)C(=O)C2N1N(c1ccccc1)c1ccccc1 (stereo not drawn)" readout="composite z-score" reported_value=0.0497

Short answer for O[C@@H](Cc1ccccc1)[C@@H](/C=C/C1CC1)N(CC#Cc1ccccc1)Cc1ccccc1Br : composite z-score was -0.19

Recorded result, O=C1N(Cc2ccccc2)c2ccccc2C[C@]12N=C(c1ccc(OCCCO)cc1)O[C@@H]2c1ccccc1 , composite z-score: -0.0994

====

Experiment: JC-1 mitochondrial signal, unstimulated HepG2 cells – cell-based, JC-1 fluorescence, 24 h, 100 nL compound, profiling panel (AID 1167); further: test concentration not given here
Conditions: HepG2 mitochondrial potential, higher = more signal
In this section we review reported z-score values for a set of molecules.

The molecule listed as C=C[C@H]1C(C(=O)OCC)=CC[C@@H](c2ccccc2)N1S(=O)(=O)c1ccc(C)cc1 has a reported z-score of 5.08

Per the records, this molecule ( COc1cc2c(cc1O)C(c1ccc(CN3CCCC3)cc1)N(Cc1cc3c(cc1Br)OCO3)CC2 (centres undefined) ) has z-score equal to 1.21

Query C=C(COC)/C(=C/C[C@H](OC(=O)c1ccncc1)c1ccccc1OCCO)c1cc(C(=O)OC)ccc1OC yields z-score of 1.94

Input [N-]=[N+]=NCc1ccccc1C[C@@]1(C(N)=O)N=C(c2ccc(OCCCO)cc2)O[C@@H]1c1ccccc1 . Output z-score: -0.864

====

Test: small molecules captured by biotinylated probe aFST – biochemical, small-molecule microarray, fluorescence 635/667, stem cell growth factor project, primary screen (AID 1086);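 further: score merges 667 nm fluorescence with signal-to-noise of each printed compound spot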
Conditions: higher = more signal
Where composite z-score equals or exceeds -0.2, the correct label is Met; where it does not, the label is Not met.

Prompt line: Dear colleague, could you confirm whether Cc1ccc(S[C@]2(C(=O)NCCN3CCOCC3)CC(=O)N(Cc3ccccc3Cl)[C@@H]2c2ccc(CO)cc2I)cc1 has composite z-score at or above -0.2?
Response line: Not met

Prompt line: // inclusive: composite z-score at least -0.2? input: COc1cc2c(cc1O)C(C1CC1)N(Cc1cccc(OC(F)(F)F)c1)CC2 (configuration not stated)
Response line: Met

Prompt line: Test whether the compound COC(=O)c1c(CC[C@@H](CO)NC(=O)N2CCC[C@H]2Cn2cc(C3(O)CCCCC3)nn2)oc(C(C)=O)c1C(=O)OC records composite z-score of -0.2 or higher.
Response line: Met

Prompt line: Given CCOC(=O)C[C@H]1[C@H](OC(=O)c2ccc(C(=O)c3ccccc3)cc2)[C@@H](NC(=O)C2CCCCC2)c2cc(OCCCO)ccc2N1C(=O)c1ccc2ccccc2n1 , state whether its composite z-score is at least -0.2.
Response line: Met

Prompt line: Record O=C1OCCC=C[C@H]2OC34C=CCN(Cn5nnc6ccccc65)C(=O)[C@H]3N(CCCO)C(=O)[C@@H]4C12 (some centres not stated) ; criterion: composite z-score no lower than -0.2. Met?
Response line: Not met

Prompt line: Check the entry COc1ccc(C(=O)Nc2ccc(CN3C(=O)[C@]4(O[C@H](CC(=O)N5Cc6ccccc6C[C@H]5CO)[C@@H]([Si](C)(C)c5ccc(OC)cc5)[C@@H]4C)c4ccccc43)cc2)cc1 : does composite z-score equal or exceed -0.2?
Response line: Met

====

# z-score per record follows
Target: NADPH oxidase 5 (Homo sapiens)
Experiment: compounds shifting NOX5 Amplex Red fluorescence – cell-based, HEK293-NOX5, NOX inhibitor project, primary screen (AID 1161)
Details: HEK293-NOX5, ionomycin, 45 min, higher = more signal

Example entries and their recorded answers appear below.
compound=COc1ccc([Si](C)(C)[C@@H]2[C@@H](CCO)O[C@]3(C(=O)N(Cc4ccccc4)c4ccc(N5CCOC5=O)cc43)[C@H]2C)cc1 reported_value=-1.07
compound=CCCC#C[Si](O[C@H](CC)c1cn([C@H](C)c2ccccc2)nn1)(C(C)C)C(C)C reported_value=0.7
compound=COCCOC(=O)N1C(=O)[C@@]2(c3cc(C#CCC(C(=O)OC)C(=O)OC)ccc31)[C@H](c1ccc(OCCO)cc1)N1[C@H](c3ccccc3)[C@H](c3ccccc3)OC(=O)[C@H]1[C@@H]2C(=O)N1CCc2cc(OC)c(OC)cc2C1 reported_value=1.29
compound=CC1=C2[C@@H](CCc3ccccc3)OB(O)C[C@@H]2[C@@H]2C(=O)N(Cc3ccccc3)C(=O)[C@@H]2C1 reported_value=0.587
compound="CS(=O)(=O)CCOC(=O)C1=CC(CCCO)=CC(c2ccc(CN3CCCC3)cc2)N(Cc2sc3ccccc3c2Cl)C=C1C(=O)OCCS(C)(=O)=O (configuration not stated)" reported_value=-0.719

The compound listed as CS(=O)(=O)CCOC(=O)C1=CC(c2ccc(CO)cc2)=CC(C2CC2)N(Cc2sc3ccccc3c2Cl)C=C1C(=O)OCCS(C)(=O)=O (configuration not stated) shows z-score equal to -0.935

Item: COC(=O)[C@@H]1N=C(c2ccc(OCCCO)cc2)O[C@@H]1c1ccccc1 | z-score: -0.273

====

Experiment: probe aEGFR binding to arrayed compounds – biochemical, biotinylated probe, 635/667 nm fluorescence, primary screen (AID 1097);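 further: probe is a biotinylated anti-EGFR antibody binding compounds printed on slides; score combines fluorescence near 667 nm and signal to noise of each spot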
Settings: small-molecule microarray, higher = more signal
# maps each entry to its composite z-score
// return a plain number; no unit text

compound="CCCCC[C@H]1OC[C@@]23C=C(Br)[C@@H](CC12)[C@@]1(CO1)C3=O (some centres undefined)" reported_value=-0.122

Noted for [N-]=[N+]=Nc1ccccc1[C@H]1OC(c2ccc(OCCCO)cc2)=N[C@@]1(Cc1ccccc1)C(=O)NCCN1CCOCC1 : its composite z-score reads 0.688

Summary for this compound, COc1ccccc1CN1C(=O)c2ccccc2[C@](Cc2ccccc2I)(C(=O)O)[C@@H]1c1ccc(CO)cc1 : composite z-score is 0.554

Value of composite z-score reported for the compound CC(=O)N1CC2(CC2)CC1c1ccccc1 (centres undefined) is 0.0986

composite z-score measured on CN1C2C=C(CCCO)C(C3C(=O)N(C(N)=O)C(=O)C32)C1C1CC1 (centres undefined) = -0.163

Per the record, O=C1C2C=CC(C(O)c3ccco3)N(Nc3ccccc3F)C2C(=O)N1c1ccccc1 (centres undefined) has composite z-score of -0.0435

Recorded composite z-score (compound C=CCN1C(=O)[C@]2(CCC(=O)OC(C)(C)C)N=C(c3ccc(OCCCO)cc3)O[C@@H]2c2ccccc21 ): 0.401

Record COC(=O)[C@@]1(Cc2ccc(OC)cc2)[C@H]2c3cc(C(=O)N4CCCC4)n(CCc4c[nH]c5ccc(OC)cc45)c3C[C@H]2CN1C(=O)c1ccccc1 . Reported composite z-score: 0.318

For record C=CC[C@@]1(C(=O)NCCCOC)N=C(c2ccc(OCCCO)cc2)O[C@@H]1c1ccccc1 the listed composite z-score is 0.0353
